# Test system: ST8814
# assay-details: drug sensitivity score (DSS, CellTiter-Glo viability, 72 h) (DSS (dimensionless)); higher = more sensitive; extreme values may be limits of the assay
Quick reference: drug sensitivity score of the listed items.

Recorded results for 10 molecules are shown here.
CO[C@@H](C(=O)N1Cc2[nH]nc(NC(=O)c3ccc(N4CCN(C)CC4)cc3)c2C1)c1ccccc1 [Danusertib] (max concentration tested 10000 nM) :: 8.83
CNC(=O)c1cc(Oc2ccc(NC(=O)Nc3ccc(Cl)c(C(F)(F)F)c3)cc2)ccn1 [Sorafenib] (max concentration tested 1000 nM) :: 0
CC(C)c1cc(-c2n[nH]c(=O)n2-c2ccc3c(ccn3C)c2)c(O)cc1O [Ganetespib] (max concentration tested 1000 nM) :: 20.7
C[C@]12O[C@H](C[C@]1(O)CO)n1c3ccccc3c3c4c(c5c6ccccc6n2c5c31)CNC4=O [Lestaurtinib] (max concentration tested 1000 nM) :: 6.44
COc1cc2ncnc(Nc3ccc(F)c(Cl)c3)c2cc1OCCCN1CCOCC1 [Gefitinib] (max concentration tested 10000 nM) :: 3.34
O=C(Nc1ccncc1)C(=O)c1cn(Cc2ccc(Cl)cc2)c2ccccc12 [Indibulin] (max concentration tested 10000 nM) :: 14.4
O=C1NC(=O)[C@@H](c2cn3c4c(cccc24)CCC3)[C@@H]1c1c[nH]c2ccccc12 [Tivantinib] (max concentration tested 1000 nM) :: 5
O=C(O)CC[C@H]1CC[C@@](c2cc(F)ccc2F)(S(=O)(=O)c2ccc(Cl)cc2)CC1 [MK-0752] (max concentration tested 1000 nM) :: 0
C=C1C[C@@H]2[C@H](CC[C@]3(C)C(=O)CC[C@@H]23)[C@@]2(C)C=CC(=O)C=C12 [Exemestane] (max concentration tested 10000 nM) :: 0
Nc1cc(C(F)(F)F)c(-c2cc(N3CCOCC3)nc(N3CCOCC3)n2)cn1 [Buparlisib] (max concentration tested 10000 nM) :: 8.12

Note down drug sensitivity score recorded for Cc1c(CN2CCN(C(=O)[C@H](C)O)CC2)sc2c(N3CCOCC3)nc(-c3cnc(N)nc3)nc12 [GDC-0980] (max concentration tested 10000 nM) 9.92

Note down drug sensitivity score recorded for CC(C)C[C@@H](C(=O)N[C@H](C(=O)OC1CCCC1)c1ccccc1)[C@H](O)C(=O)NO [Tosedostat] (max concentration tested 10000 nM) 2.24

Note down drug sensitivity score recorded for CN(C)c1nc(N(C)C)nc(N(C)C)n1 [Altretamine] (max concentration tested 10000 nM) 0

Note down drug sensitivity score recorded for CCN(CC)CCCC(C)Nc1ccnc2cc(Cl)ccc12 (centres undefined) [Chloroquine aq] (max concentration tested 100000 nM) 17.4

====

Quick reference: % inhibition of the listed items.
# Test system: HS-Sch-2
# assay-details: % inhibition of CellTiter-Glo viability at highest tested concentration (72 h), relative to DMSO and benzethonium chloride controls; higher = more inhibition
Please reply with the bare figure in % and do not write the unit itself.

Recorded results for 4 compounds are shown here.
Cc1cnc(Nc2ccc(OCCN3CCCC3)cc2)nc1Nc1cccc(S(=O)(=O)NC(C)(C)C)c1 [Fedratinib] (max concentration tested 10000 nM) :: 102
c1ccc([C@H]2CN3CCSC3=N2)cc1 [Levamisole] (max concentration tested 10000 nM) :: -7.3
CC[C@H](CC#N)OC(=O)N[C@@H](C)c1cccc(NC(=O)Nc2ccc(-c3cnco3)c(OC)c2)c1 [AVN944] (max concentration tested 10000 nM) :: 60.8
CN1CC[C@H](c2c(O)cc(O)c3c(=O)cc(-c4ccccc4Cl)oc23)[C@H](O)C1 [Alvocidib] (max concentration tested 10000 nM) :: 101

Fill in: % inhibition on HS-Sch-2, entry O=C(O)c1ccc(-c2c[nH]c3ncc(-c4ccccc4)cc23)cc1C1CCCC1 (max concentration tested 10000 nM) 31

Fill in: % inhibition on HS-Sch-2, entry CS(=O)(=O)c1ccc(C(=O)Nc2ccc(Cl)c(-c3ccccn3)c2)c(Cl)c1 [Vismodegib] (max concentration tested 10000 nM) 17.3

Fill in: % inhibition on HS-Sch-2, entry CCC/C=C/C=C/C(=O)O[C@H]1/C(=C/C(=O)OC)C[C@H]2C[C@H]([C@@H](C)O)OC(=O)C[C@H](O)C[C@@H]3C[C@H](OC(C)=O)C(C)(C)[C@](O)(C[C@@H]4C/C(=C/C(=O)OC)C[C@H](/C=C/C(C)(C)[C@]1(O)O2)O4)O3 [Bryostatin 1] (max concentration tested 100 nM) 19.4

Fill in: % inhibition on HS-Sch-2, entry N#Cc1c(Oc2ccc(F)c(NC(=O)Cc3cccc(C(F)(F)F)c3)c2)ccc2nc(NC(=O)C3CC3)sc12 [TAK-632] (max concentration tested 10000 nM) 32.1

Fill in: % inhibition on HS-Sch-2, entry CCN(CC)CCN(Cc1ccc(-c2ccc(C(F)(F)F)cc2)cc1)C(=O)Cn1c(SCc2ccc(F)cc2)nc(=O)c2c1CCC2 [Darapladib] (max concentration tested 1000 nM) 33

Fill in: % inhibition on HS-Sch-2, entry C[C@]1(c2nc3c(C(N)=O)cccc3[nH]2)CCCN1 [Veliparib] (max concentration tested 10000 nM) 2.46

Fill in: % inhibition on HS-Sch-2, entry Cc1ccc(-n2nc(C(C)(C)C)cc2NC(=O)Nc2ccc(OCCN3CCOCC3)c3ccccc23)cc1 [Doramapimod] (max concentration tested 10000 nM) 55.8

====

Quick reference: relative IC50 of the listed items.
# System: HSC2
# assay-details: relative IC50 (inflection point of fitted dose-response curve, CellTiter-Glo viability, 72 h; top asymptote may be below 50% inhibition); higher = less potent
Please reply with the bare figure in nM and do not write the unit itself.

Recorded results for 5 compounds are shown here.
CC(C)c1cc(-c2n[nH]c(=O)n2-c2ccc3c(ccn3C)c2)c(O)cc1O :: 17.2
CCn1c(-c2nonc2N)nc2cnc(Oc3cccc(NC(=O)c4ccc(OCCN5CCOCC5)cc4)c3)cc21 :: 51.4
COc1cccc2c1C(=O)c1c(O)c3c(c(O)c1C2=O)C[C@@](O)(C(C)=O)C[C@@H]3O[C@H]1C[C@H](N)[C@H](O)[C@H](C)O1 :: 72.5
COCC1(CO)C(=O)C2CCN1CC2 (stereo not drawn) :: 2140
COc1ncc(-c2ccc3nccc(-c4ccnnc4)c3c2)cc1NS(=O)(=O)c1ccc(F)cc1F :: 25.5

Fill in: relative IC50 on HSC2, entry "Cc1ccc(-n2nc(C(C)(C)C)cc2NC(=O)Nc2ccc(OCCN3CCOCC3)c3ccccc23)cc1" 1760

Fill in: relative IC50 on HSC2, entry "Nc1ncnc2c1nc(N)n2[C@@H]1O[C@H](CO)[C@@H](O)[C@H]1O" 2250

====

# Tested on: HSC2
# assay-details: relative IC50 (inflection point of fitted dose-response curve, CellTiter-Glo viability, 72 h; top asymptote may be below 50% inhibition); higher = less potent
Decision: relative IC50 compared against 500 nM; not below it gives Satisfied, below it gives Not satisfied.

C=C(c1ccc(C(=O)O)cc1)c1cc2c(cc1C)C(C)(C)CCC2(C)C [Bexarotene] :: Satisfied

Here is the next item to consider.
Please tell me: is the compound Cc1[nH]c2ccccc2c1CCNCc1ccc(/C=C/C(=O)NO)cc1 [Panobinostat] at or over 500 nM in terms of relative IC50? Not satisfied

====

# System: HSC1 (primary human Schwann cells)
# assay-details: drug sensitivity score (DSS, CellTiter-Glo viability, 72 h) (DSS (dimensionless)); higher = more sensitive; extreme values may be limits of the assay
Decision: drug sensitivity score compared against 0.2; not below it gives fulfilled, below it gives not fulfilled.

Example entries begin here.
OC[C@H]1O[C@@H](n2cnc3c2N=CNC[C@H]3O)C[C@@H]1O [Pentostatin] (max concentration tested 10000 nM) :: not fulfilled
c1ccc([C@H]2CN3CCSC3=N2)cc1 [Levamisole] (max concentration tested 10000 nM) :: not fulfilled
Cn1c(Nc2ccc(C(F)(F)F)cc2)nc2cc(Oc3ccnc(-c4ncc(C(F)(F)F)[nH]4)c3)ccc21 [RAF265] (max concentration tested 1000 nM) :: fulfilled
Cc1ccc(-n2nc(C(C)(C)C)cc2NC(=O)Nc2ccc(OCCN3CCOCC3)c3ccccc23)cc1 [Doramapimod] (max concentration tested 10000 nM) :: fulfilled
C[C@]12CC[C@@H]3c4ccc(O)cc4C[C@@H](CCCCCCCCC[S+]([O-])CCCC(F)(F)C(F)(F)F)[C@H]3[C@@H]1CC[C@@H]2O (stereo partly specified) [Fulvestrant] (max concentration tested 1000 nM) :: not fulfilled

Here is the next item to consider.
Please tell me: is the compound COc1cc(Nc2ncc3c(n2)-c2ccc(Cl)cc2C(c2c(F)cccc2OC)=NC3)ccc1C(=O)O [Alisertib] (max concentration tested 10000 nM) at or over 0.2 in terms of drug sensitivity score? fulfilled
